testSystem: T1, scHLA-B27-mmH (engineered HLA-B*27 ectodomain in-line fusion protein) (human (HLA-B*2705, beta-2 …))
T1 construct: also called soluble HLA-B*27 fusion protein
experimentalProtocol: SPR (Biacore), mAb captured, 37 C, HBST pH 7.4
pKd: −log10 of the molar value.
quantityName: pKd

>>> reportedmeasurement("H4H2490N2 (antibody, V domains shown) VH: QVQLVQSGADVKWPGASVKVSCRASGYTFTGYYMHWVRQAPGQGLEWMGWINPNNGGTNYAQKFQGRVTMTRDTSITTVYMELSSLISDDTAVYYCARGEDLELRNYYYYGMDVWGQGTSVTVSS VL: DIQMTQSPSSLSASVGDRVTITCRASQSISSYLNWYQQKPGKAPKLLIYAASNLQSGVPSRFSGSGFGTDFTLTISSLQSEDFATYYCQQTYSTRTFGRGTKVEIK")
6.44
>>> reportedmeasurement("H4H2538P (antibody, V domains shown) VH: QVQLVQSGAEVKKPGASVKVSCKASGYTFTDYYMHWVRQAPGQGLEWIGWINPNSGGSNFAQKFQGRVTMTRDTSISTAYMELSRLRSDDTAVYYCARKAGYTSSWFDYWGQGTLVTVSS VL: DIVMTQSPDSLAVSLGERATINCKSSQSVLYSFNNKNYLSWYQQKPGQPPKLLIYWASTRESGVPDRFSGSGSGTDFTLTISSLQAEDAAVYYCQQYYSMITFGQGTRLEIK")
8.95
>>> reportedmeasurement("H4H2499N (antibody, V domains shown) VH: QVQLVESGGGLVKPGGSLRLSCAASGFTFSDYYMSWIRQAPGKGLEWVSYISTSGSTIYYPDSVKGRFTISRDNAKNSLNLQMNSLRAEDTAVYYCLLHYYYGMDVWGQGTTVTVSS VL: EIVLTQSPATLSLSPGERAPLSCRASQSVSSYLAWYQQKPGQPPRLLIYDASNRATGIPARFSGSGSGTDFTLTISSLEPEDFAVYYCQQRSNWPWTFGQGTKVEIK")
7.55
>>> reportedmeasurement("H4H2528P (antibody, V domains shown) VH: QVQLVESGGGVVQPGRSLRLSCAASGFTFSRFGMDWVRQAPGKGLEWVAVISYDGKNKLYADSVKGRFTISRDNSKNTLYLQMNSLRAEDTAVYYCAKEGDNWNFVGDSWGQGTLVTVSS VL: DIQMTQSPSSVSASVGDRVTITCRASQGISARLAWYQQKPGKAPKLLIYAASSLQSGVPSRFSGSGSGTYFTLTISNLQPEDFATYYCQQANSFPYTLGQGTKLEIK")
7.69
>>> reportedmeasurement("H4H2530S (antibody, V domains shown) VH: EVQLVESGPGLVKPSQTLSLTCTVSGGSINSGGSYWSWIRQHPGKGLEWIGYIYSSGNTYYKPSLKSRVTISLDTSKNQFSLKMSSVTAADTAIYYCARDPRGITGTHYFDYWGQGTTVTVSS VL: EIVLTQSPGTLSLSPGERATLSCRTSQSISNKYLAWYQQKPGQAPRLLIYGASTRATGIPDRFSGSGSGTDFTLTISRLEPEDFAVYYCQQFGTSLFTFGPGTKVEIK")
8.73
>>> reportedmeasurement("H4H2524P (antibody, V domains shown) VH: QVQLQESGPGLVKPSQTLSLTCTVSGGSISSDGYYWSWIRQHPGKGLEWIGYIYYSGNTYYNPSLKSRVTISVDTSKNHFSLKLSSVTAADTAVYYCTRDPRGITGTHYFDYWGQGTLVTVSS VL: EIVLTQSPGTLSLSPGERATLSCRTSQSVSSSYLAWYQQKPGQAPRLLIYGASSRATGIPDRFSGSGSGTDFTLTISRLEPEDFAVYYCQQFGTSLFTFGPGTKVDIK")
7.57
>>> reportedmeasurement("H4H2718N (antibody, V domains shown) VH: EVQLVESGGGLVQPGRSLRLSCAASGFTFDEYAMHWVRQVPGKGLEWVSGISRNSGTIGYVDSVLGRFTISRDNAKNSLYLQMNSLRPEDTALYYCAKDKGWLLGMDVWGQGTTVTVSS VL: DIQMTQSPSSLSASVGDRVTITCRASQAIRNDLGWYQQKPGKAPKRLIYAASSLQSGVPSRFSGSGSGTEFALTISSLQPEDFATYYCLQYNSYLYTFGQGTKLEIK")
7.54
>>> reportedmeasurement("H4H2477N2 (antibody, V domains shown) VH: QVQLQQWGAGLLKPSETLSLTCAVYGGSFSDYYWSWIRQPPGKGLEWIGEINHRGNTNYNPSLKSRVTISVDTSKNQFSLKLRSVTAADMAVYYCARIQLWLRGYDYYGMDVWGQGTTVTVSS VL: DIQMTQSPSSLSASVGDRVTITCRASQGIRNDLGWYQQKPGKAPKRLIYAASSLQGGVPSRFSGSGSGTEFSLTISSLQPEDFASYYCLQHNTYPWTFGQGTKVEIK")
7.33
>>> reportedmeasurement("H4H2526P (antibody, V domains shown) VH: QVQLVESGGGVVQPGRSLRLSCAASGFTFSRFGMDWVRQAPGKGLEWVAVISYDGKNKLYADSVKGRFTISRDNSKNTLYMQMNSLRAEDTAVYYCAKEGDNWNFVGDSWGQGTLVTVSS VL: DIQMTQSPSSVSASVGDRVTITCRASQDISARLAWYQQKPGKAPKLLIYAASSLQSGVPSRFSGSGSGTDFTLTISSLEPEDFATYYCQQADSFPYTLGQGTKLEIK")
8.41
>>> reportedmeasurement("H4H2542P (antibody, V domains shown) VH: EVQLVESGGGLVQPGRSLRLSCAASGFTFDDYAMHWVRQGPGKGLEWVSGISWNGRTMDHADSVKGRFTISRDNAKNSLYLQMNSLRNDDTGVYFCAKEGIPVAGTYFHFYGMDVWGQGTTVTVSS VL: EIVMTQSPATLSVSPGERVTLSCRASQSIGNYLAWYQQKPGQAPRLLIYGTSTRATGIPARFSGSGSGTEFTLTFSSLQSEDFAVYYCQQYNHWPLTFGGGTKVEIK")
6.77
